Every entry's value here was drawn from PubChem BioAssay (NCI).

Test system: K-562 leukemia
ASSAY_OVERVIEW: NCI tumour cell line growth inhibition, 48 h
TGI for assorted compounds

Recorded TGI, per entry:
INSERT INTO measurements (compound, result) VALUES
  ('Cc1ccc(C2C(C(=O)C(C)(C)C)N2S(=O)(=O)c2ccc(C)cc2)cc1 (stereo unspecified)', '65.3 µM'),
  ('COc1ccc2c(c1)OCC1Cc3cc4c(cc3OC21)OCO4 (stereo unspecified)', '> 100 µM'),
  ('COc1c(Cl)cc(Cl)cc1S(=O)O', '> 100 µM');

# input compound: C=C(C)c1ccccc1 (tested in a mixture with another compound) ; wanted: its TGI
> 100 µM

Let us now turn to N#CCC(=O)N/N=C(\CCN1CCCC1)CC(c1ccccc1)c1c(O)c2ccccc2oc1=O (stereo unspecified)
> 100 µM

Here is the next compound: S=C(S)N1CCOCC1
24.9 µM
